- target.of.assay: T1, human DLL3 (Homo sapiens, UniProt Q9NYJ7)
- T1 construct: purchased ACRO DLL3-H52H4
- T1 sequence (Q9NYJ7 27-492 limits assumed): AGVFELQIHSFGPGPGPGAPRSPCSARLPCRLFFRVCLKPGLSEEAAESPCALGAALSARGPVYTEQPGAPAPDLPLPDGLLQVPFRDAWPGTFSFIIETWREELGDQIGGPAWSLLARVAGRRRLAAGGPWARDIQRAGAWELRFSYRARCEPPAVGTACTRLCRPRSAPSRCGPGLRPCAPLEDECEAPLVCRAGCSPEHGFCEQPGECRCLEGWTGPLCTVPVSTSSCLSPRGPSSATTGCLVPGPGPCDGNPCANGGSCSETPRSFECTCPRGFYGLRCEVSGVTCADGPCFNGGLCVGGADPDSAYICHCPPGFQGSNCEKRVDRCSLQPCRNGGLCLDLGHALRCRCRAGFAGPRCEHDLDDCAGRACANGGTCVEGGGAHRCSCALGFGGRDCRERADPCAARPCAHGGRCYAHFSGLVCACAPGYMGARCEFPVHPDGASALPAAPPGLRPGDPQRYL
- assay.name: Biacore antibody affinity assay, human DLL3
- Assay type: binding
readout.name: kd (s⁻¹)

>>> data_value("hAb6L3H3: humanized antibody of mAb6: hAb6VH3 (SEQ ID NO: 34) + hAb6VL3 (SEQ ID NO: 47), constant regions SEQ ID NO: 28/29 (antibody, V domains shown, constant regions SEQ ID 28/29; hAb6 VH3; hAb6 VL3) VH: EVQLVQSGAEVKKPGASVKVSCKASGYTFTDYYMNWVRQAPGQRLEWIGIINPYSGVTIYNHKFKGRATLTVDKSANTAYMELSSLRSEDTAVYYCARQDSLLDYAMDYWGQGTTVTVSS VL: DIQMTQSPSSLSASVGDRVTITCHASQGISGNMGWLQQKPGKSFKGLIYHGANLEDGVPSRFSGSGSGADYTLTISSLQPEDFATYYCVQYAQFPYTFGGGTKVEIK")
0.00135
>>> data_value("hAb6L4H11: humanized antibody of mAb6: hAb6VH11 (SEQ ID NO: 42) + hAb6VL4 (SEQ ID NO: 48), constant regions SEQ ID NO: 28/29 (antibody, V domains shown, constant regions SEQ ID 28/29; hAb6VH11; hAb6 VL4) VH: EVQLVQSGSELKKPGASVKVSCKASGYTFTDYYMNWVKQAPGQGLEWMGIINPYSGVTIYNHKFKGRFVLSVDKSSNTAYLQISSLKAEDTAVYYCARQDSLLDYAMDYWGQGTTVTVSS VL: DIQMTQSPSSLSASVGDRVTITCHASQGISGNMGWLQQKPGKAPKGLIYHGANLEDGVPSRFSGSGSGADYTLTISSLQPEDFADYYCVQYAQFPYTFGGGTKVEIK")
0.000672
